Target: ZFPm2 six-finger zinc finger protein (Sp1C framework) (artificial)
Sequence (chain, as listed by the source): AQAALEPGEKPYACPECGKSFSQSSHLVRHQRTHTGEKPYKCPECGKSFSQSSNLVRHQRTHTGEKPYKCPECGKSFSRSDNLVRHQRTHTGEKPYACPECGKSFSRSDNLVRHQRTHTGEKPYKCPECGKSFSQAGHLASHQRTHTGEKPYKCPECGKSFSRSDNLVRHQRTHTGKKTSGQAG
Assay: EMSA; Zn Buffer A, 10% glycerol, 0.8% BSA, salmon sperm DNA, room temp
Conditions: tags: MBP fusion (pMAL-C2), E. coli; label: 5'-biotin (ELISA); 32P (gel shift); hairpin

binder: m12 hairpin oligo (dsDNA) DNA: GGAGCCTCCTTCCTCCTCTCACTCGGGTTTTCCCGAGTGAGAGGAGGAAGGAGGCTCC
Kd: 7.5 nM
